The measurements presented in this section are drawn from patent US8431597B2.

# Measurement target: Smoothened (SMO) (Mus musculus, UniProt P56726)
# Construct: C3H10T1/2 cells (ATCC #CCL-226) were split and seeded; endogenous in cells; host or cells: C3H10T1/2 (ATCC #CCL-226)
# Sequence (P56726 33-793): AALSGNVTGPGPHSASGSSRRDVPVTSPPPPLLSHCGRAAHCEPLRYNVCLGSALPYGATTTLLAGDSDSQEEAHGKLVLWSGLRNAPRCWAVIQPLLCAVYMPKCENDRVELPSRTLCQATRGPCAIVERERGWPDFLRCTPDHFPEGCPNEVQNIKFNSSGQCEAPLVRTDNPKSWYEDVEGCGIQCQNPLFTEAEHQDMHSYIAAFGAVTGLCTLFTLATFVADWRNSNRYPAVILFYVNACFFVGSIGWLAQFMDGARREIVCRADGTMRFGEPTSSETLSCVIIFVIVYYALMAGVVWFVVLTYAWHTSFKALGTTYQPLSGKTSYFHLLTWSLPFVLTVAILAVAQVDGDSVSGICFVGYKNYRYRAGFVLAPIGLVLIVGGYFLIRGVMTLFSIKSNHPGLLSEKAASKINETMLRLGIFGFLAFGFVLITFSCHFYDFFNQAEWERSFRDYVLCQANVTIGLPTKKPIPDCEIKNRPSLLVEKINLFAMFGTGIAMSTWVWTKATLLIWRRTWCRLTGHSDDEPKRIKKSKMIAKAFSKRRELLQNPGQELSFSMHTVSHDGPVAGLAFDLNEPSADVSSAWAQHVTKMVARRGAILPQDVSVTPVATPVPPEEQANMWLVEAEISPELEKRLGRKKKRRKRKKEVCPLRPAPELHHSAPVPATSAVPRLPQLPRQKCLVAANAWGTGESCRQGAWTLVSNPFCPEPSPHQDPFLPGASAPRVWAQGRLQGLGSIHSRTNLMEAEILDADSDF
# Protocol summary: Smoothened (SMO)/Sonic Hedgehog (SHh) Transient Transcriptional Activation Assay (Gli-luciferase reporter in C3H10T1/2 cells)
# Format: cell-based, murine
# Condition: C3H 10T1/2, 2 μM compound; transfected C3H10T1/2 cells, recombinant human SHh 250 ng/mL, 20 hours, luciferase readout; read-out: SMO CELL % INHIBITION @ 2 μM
Structures can show the parent of a compound that is named as a salt.
Measure name: inhibition at 2 µM (%)

// worked examples, inhibition at 2 µM included
- Compound: "CC(C)N1C[C@@H](NC(=O)Nc2ccc(Cl)c(C(F)(F)F)c2)C[C@H]1c1nc2ccccc2[nH]1"
  Measurement: 85.2
- Compound: "CN1CC[C@@H](NC(=O)Cc2ccccc2)C[C@@H]1c1nc2ccccc2[nH]1 [Example 110, trifluoroacetate]"
  Measurement: 83.2
- Compound: "COc1ccc(NC(=O)N[C@@H]2CCN(C)[C@@H](c3nc4ccccc4[nH]3)C2)cn1 [Example 83, hydrochloride]"
  Measurement: 96.1
- Compound: "Cc1ccc(NC(=O)N[C@@H]2CCN(C3CCC3)[C@@H](c3nc4ccccc4[nH]3)C2)cn1"
  Measurement: 106

a: CN1CC[C@@H](NC(=O)Cc2cc3ccccc3o2)C[C@@H]1c1nc2ccccc2[nH]1 [Example 104, trifluoroacetate]
b: CN1CC[C@@H](NC(=O)C(F)(F)c2ccccc2)C[C@@H]1c1nc2ccccc2[nH]1
Task item: Lab note: record which item had the higher inhibition at 2 µM, a or b . I would appreciate it if you answered with the label of your choice.
Reply: a
(a: 99.5%, b: 57.5%)

====

# Measurement target: Smoothened (SMO) (Mus musculus, UniProt P56726)
# Construct: C3H10T1/2 cells (ATCC #CCL-226) were split and seeded; endogenous in cells; host or cells: C3H10T1/2 (ATCC #CCL-226)
# Protocol summary: Smoothened (SMO)/Sonic Hedgehog (SHh) Transient Transcriptional Activation Assay (Gli-luciferase reporter in C3H10T1/2 cells)
# Format: cell-based, murine
# Condition: C3H 10T1/2, 2 μM compound; transfected C3H10T1/2 cells, recombinant human SHh 250 ng/mL, 20 hours, luciferase readout; read-out: SMO CELL % INHIBITION @ 2 μM
Where a name gives a salt, the structure may show the parent alone.
Measure name: inhibition at 2 µM (%)

- Compound: "CN1CC[C@@H](NC(=O)c2ccc(N=[N+]=[N-])cc2)C[C@@H]1c1nc2ccccc2[nH]1"
  inhibition at 2 µM [%]: 101
- Compound: "COc1ccc2[nH]c([C@H]3C[C@H](NC(=O)Nc4ccc(C)nc4)CCN3C)nc2c1 [Example 129, hydrochloride]"
  inhibition at 2 µM [%]: 104
- Compound: "COc1ccc(NC(=O)N[C@@H]2CCN(C)[C@@H](c3nc4cc(C)ccc4[nH]3)C2)cn1 [Example 137, hydrochloride]"
  inhibition at 2 µM [%]: 102
- Compound: "CN1CC[C@@H](NC(=O)Cn2ncc3ccccc32)C[C@@H]1c1nc2ccccc2[nH]1 [Example 109, trifluoroacetate]"
  inhibition at 2 µM [%]: 85.2
- Compound: "Cc1ccc2nc([C@@H]3C[C@H](NC(=O)Nc4ccc(Cl)c(C(F)(F)F)c4)CN3C)[nH]c2c1"
  inhibition at 2 µM [%]: 102
- Compound: "CN1CC[C@@H](NC(=O)NC2CCCC2)C[C@@H]1c1nc2ccccc2[nH]1 [Example 85, hydrochloride]"
  inhibition at 2 µM [%]: 93.1
- Compound: "CC(=O)c1c(C)[nH]c(C(=O)N[C@@H]2CCN(C)[C@@H](c3nc4ccccc4[nH]3)C2)c1C [Example 50, hydrochloride]"
  inhibition at 2 µM [%]: 105
